Target: human soluble CD4 (sCD4) (human, UniProt P01730)
Experiment: SPR
# log10 Kd listing for each entry below
Base-10 log of Kd, unit nM.

Consider the binder M22 (CDR-H1 DYTIH) (antibody, V domains shown) VH: QVQLQQSGPEVVKPGASVKMSCKASGYTFTDYTIHWVRQKPGQGLDWIGYINPYNDGTDYDEKFKGKATLTSDTSTSTAYMELSSLRSEDTAVYYCAREKDNYATGAWFAYWGQGTLVTVSS VL: DIVMTQSPDSLAVSLGERVTMNCKSSQSLLYSTNQKNYLAWYQQKPGQSPKLLIYWASTRESGVPDRFSGSGSGTDFTLTISSVQAEDVAVYYCQQYYSYRTFGGGTKLEIK and give its recorded log10 Kd.
-1.33

Consider the binder M28 (CDR-H1 DYTFH) (antibody, V domains shown) VH: QVQLQQSGPEVVKPGASVKMSCKASGYTFTDYTFHWVRQKPGQGLDWIGYINPYNDGTDYDEKFKGKATLTSDTSTSTAYMELSSLRSEDTAVYYCAREKDNYATGAWFAYWGQGTLVTVSS VL: DIVMTQSPDSLAVSLGERVTMNCKSSQSLLYSTNQKNYLAWYQQKPGQSPKLLIYWASTRESGVPDRFSGSGSGTDFTLTISSVQAEDVAVYYCQQYYSYRTFGGGTKLEIK and give its recorded log10 Kd.
-1.85

Consider the binder E95A (antibody, V domains shown) VH: QVQLQQSGPEVVKPGASVKMSCKASGYTFTSYVIHWVRQKPGQGLDWIGYINPYNDGTDYDEKFKGKATLTSDTSTSTAYMELSSLRSEDTAVYYCARAKDNYATGAWFAYWGQGTLVTVSS VL: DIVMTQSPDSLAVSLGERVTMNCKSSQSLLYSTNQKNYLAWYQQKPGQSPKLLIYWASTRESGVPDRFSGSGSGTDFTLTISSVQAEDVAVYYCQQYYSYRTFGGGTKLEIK and give its recorded log10 Kd.
0.89

Consider the binder M3 (CDR-H1 EYTIH) (antibody, V domains shown) VH: QVQLQQSGPEVVKPGASVKMSCKASGYTFTEYTIHWVRQKPGQGLDWIGYINPYNDGTDYDEKFKGKATLTSDTSTSTAYMELSSLRSEDTAVYYCAREKDNYATGAWFAYWGQGTLVTVSS VL: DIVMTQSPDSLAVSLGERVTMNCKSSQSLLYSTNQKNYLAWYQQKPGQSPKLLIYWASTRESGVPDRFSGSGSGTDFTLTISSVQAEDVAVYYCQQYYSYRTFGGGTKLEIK and give its recorded log10 Kd.
-1.48

Consider the binder M24 (CDR-H1 EQTLH) (antibody, V domains shown) VH: QVQLQQSGPEVVKPGASVKMSCKASGYTFTEQTLHWVRQKPGQGLDWIGYINPYNDGTDYDEKFKGKATLTSDTSTSTAYMELSSLRSEDTAVYYCAREKDNYATGAWFAYWGQGTLVTVSS VL: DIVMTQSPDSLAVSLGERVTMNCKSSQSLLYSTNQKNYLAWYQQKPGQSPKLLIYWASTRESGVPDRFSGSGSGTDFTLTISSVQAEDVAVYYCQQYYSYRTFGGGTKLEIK and give its recorded log10 Kd.
-1.74
